B1: CCND1 (parent)
chain: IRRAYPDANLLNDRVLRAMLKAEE

# Variants of: B1
# PROCEDURE_SUMMARY: protein stability index of a GFP-peptide fusion (GPS, HEK-293T) (PSI 1-6); higher = more stable;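 note: lentivirally expressed fusions sorted by FACS into six bins by GFP to DsRed ratio, PSI derived from sequencing read proportions per bin multiplied by bin number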
# CONDITION: c terminus: a fixed tail appended
OBSERVATION_TYPE: protein stability index
Could you keep your reply to the number by itself?

Guide cases for protein stability index, answers given:
mutation_code=Y5W test_value=2.13
mutation_code=N9A test_value=2.34
mutation_code=R14F test_value=2.56

## Input Indicate the recorded protein stability index value for this variant: R2W
## Output 3.61

## Input Please indicate protein stability index recorded for D7Y
## Output 2.13

## Input Give the value of protein stability index reported for the following: P6F
## Output 2.4

## Input Report measured protein stability index; entry is R2L
## Output 2.39

## Input Provide one value: measured protein stability index of M19H
## Output 3.54
